Data origin: PubChem BioAssay

Target Or System: Dickkopf-related protein 1 (Homo sapiens)
Assay Protocol: DKK1 binders on small-molecule microarrays, primary screen, biochemical, small-molecule microarray, 635 nm fluorescence scan (AID 1106);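 also: score merges emission near 667 nm with signal to noise over three replicate slides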
Experimental Parameters: DKK1 binding, higher = more signal
Measured composite z-score of individual entries
Property Name: composite z-score

{"Molecule": "O=C1O[C@@H](c2ccccc2)[C@@H](c2ccccc2)N2[C@@H](c3ccccc3OCCO)[C@]3(C(=O)Nc4ccc(C#CCCO)cc43)[C@@H](C(=O)Nc3nc4ccccc4s3)[C@H]12", "Property Name": "composite z-score", "Observed": 0.76}
{"Molecule": "CCCCN1CC=CC23O[C@@H]4/C=C\\CCC(C)OC(=O)C4[C@H]2C(=O)N(CCCCCCO)[C@@H]3C1=O (stereo partly specified)", "Property Name": "composite z-score", "Observed": -0.842}
{"Molecule": "COc1c(C)cc(-c2cc3c(c(Cc4ccccc4)n2)[Si](C(C)C)(C(C)C)OC3)cc1C", "Property Name": "composite z-score", "Observed": 0.0324}
{"Molecule": "CC(C)CCC[C@@H](C)[C@H]1CC[C@@]2(C)C3=C(CC[C@]12C)[C@@]1(C)CC[C@H](OC(=O)c2ccc(Br)cc2)C(C)(C)C1CC3 (stereo partly specified)", "Property Name": "composite z-score", "Observed": 0.391}
{"Molecule": "NC(=O)N1C(=O)C2C(C1=O)C1C=C(c3ccc(CO)cc3)C2C(C2CC2)N1Cc1sc2ccccc2c1Cl (stereo unspecified)", "Property Name": "composite z-score", "Observed": 0.307}
{"Molecule": "C=C[C@H](COC(C)=O)NS(=O)(=O)c1ccc(Br)cc1", "Property Name": "composite z-score", "Observed": 0.516}
